tested on: CAL-120, human breast adenocarcinoma cells; assay: Proliferation assay CAL-120 (crystal violet, 4 days); format: cell-based; settings: Homo sapiens, CAL-120, 96 h, CAL-120 cells, median, read-out: Prolif-CAL-120, IC50-[mol/l] (median)
pIC50: −log10 of the molar value.
property: pIC50

INSERT INTO results (compound, tested_on, reading) VALUES
  ('COc1cccc2[nH]c(CNc3nc(N4CCNCC4)nc4c(C5CC5)cnn34)nc12', 'CAL-120, human breast adenocarcinoma cells', 8.64),
  ('Cc1cnn2c(NCc3nc4c(F)c(F)ccc4[nH]3)nc(N3CCN(C)CC3)nc12', 'CAL-120, human breast adenocarcinoma cells', 8.36),
  ('CN1CCN(c2nc(NCc3nc4c(F)cccc4[nH]3)n3ncc(Cl)c3n2)CC1.O=CO', 'CAL-120, human breast adenocarcinoma cells', 8.09),
  ('Fc1ccc2[nH]c(CNc3nc(N4CCOCC4)nc4c([C@@H]5CC5(F)F)cnn34)nc2c1 (single isomer, unassigned)', 'CAL-120, human breast adenocarcinoma cells', 7.42),
  ('CN1CCN(c2nc(NCc3nc4cc(Cl)c(Cl)cc4[nH]3)n3ncc(-c4cnn(C)c4)c3n2)CC1', 'CAL-120, human breast adenocarcinoma cells', 6.68),
  ('FC(F)(F)CN1CCN(c2nc(NCc3nc4ccccc4[nH]3)n3ncc(Br)c3n2)CC1', 'CAL-120, human breast adenocarcinoma cells', 6.35),
  ('FC(F)(F)c1ccc2[nH]c(CNc3nc(N4CC5CCC(C4)N5)nc4c(C5CC5)cnn34)nc2c1', 'CAL-120, human breast adenocarcinoma cells', 8.64),
  ('COC(C)(C)COc1nc(NCc2nc3ccccc3[nH]2)n2ncc(Br)c2n1', 'CAL-120, human breast adenocarcinoma cells', 6.82),
  ('Cc1ccccc1-c1cnc(CNc2nc(N3CCOCC3)nc3c(Br)cnn23)[nH]1', 'CAL-120, human breast adenocarcinoma cells', 7.58),
  ('CN1CCN(c2nc(NCc3nc4c(OC(F)(F)F)cccc4[nH]3)n3ncc(Br)c3n2)CC1', 'CAL-120, human breast adenocarcinoma cells', 7.43),
  ('Fc1ccccc1-c1nnc(CNc2nc(N3CCOCC3)nc3c(Br)cnn23)[nH]1', 'CAL-120, human breast adenocarcinoma cells', 7.27),
  ('CN1C2CCC1CN(c1nc(NCc3nc4c(F)c(F)ccc4[nH]3)n3ncc(C(F)(F)F)c3n1)C2', 'CAL-120, human breast adenocarcinoma cells', 8.68),
  ('CN1CCN(c2nc(NCc3nc4cc(F)c(Cl)cc4[nH]3)n3ncc(Br)c3n2)CC1', 'CAL-120, human breast adenocarcinoma cells', 8.69),
  ('FC(F)(F)Cc1cnn2c(NCc3nc4cc(Cl)ccc4[nH]3)nc(N3CCOCC3)nc12', 'CAL-120, human breast adenocarcinoma cells', 8.33),
  ('CN1CCC(Oc2nc(NCc3nc4ccccc4[nH]3)n3ncc(Br)c3n2)CC1', 'CAL-120, human breast adenocarcinoma cells', 7.28),
  ('CC1(C)CN(c2nc(NCc3nc4ccccc4[nH]3)n3ncc(Br)c3n2)CCO1', 'CAL-120, human breast adenocarcinoma cells', 7.25);

* * *

target: CDK9/CycT1 (Homo sapiens); construct: Recombinant full-length His-tagged human CDK9 and CycT1; purchased Life Technologies PV4131; host or cells: insect cells; test: CDK9/CycT1 high ATP kinase assay (TR-FRET, 2 mM ATP); format: biochemical; details: 2 mM ATP (high ATP); median; read-out: CDK9/CyclinT1, 2 mM ATP (high ATP), IC50 (median)
Sequence (P50750 whole entry): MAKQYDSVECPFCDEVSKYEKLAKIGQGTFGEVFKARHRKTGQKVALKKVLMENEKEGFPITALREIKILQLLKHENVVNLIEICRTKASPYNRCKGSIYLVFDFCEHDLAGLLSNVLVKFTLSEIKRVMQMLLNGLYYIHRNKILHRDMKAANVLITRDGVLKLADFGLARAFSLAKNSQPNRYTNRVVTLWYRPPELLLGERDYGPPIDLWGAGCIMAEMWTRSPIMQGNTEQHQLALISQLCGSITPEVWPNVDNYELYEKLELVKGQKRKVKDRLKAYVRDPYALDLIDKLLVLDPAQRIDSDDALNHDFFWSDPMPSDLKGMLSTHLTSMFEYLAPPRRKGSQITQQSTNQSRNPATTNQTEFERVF
Sequence (O60563 whole entry partner): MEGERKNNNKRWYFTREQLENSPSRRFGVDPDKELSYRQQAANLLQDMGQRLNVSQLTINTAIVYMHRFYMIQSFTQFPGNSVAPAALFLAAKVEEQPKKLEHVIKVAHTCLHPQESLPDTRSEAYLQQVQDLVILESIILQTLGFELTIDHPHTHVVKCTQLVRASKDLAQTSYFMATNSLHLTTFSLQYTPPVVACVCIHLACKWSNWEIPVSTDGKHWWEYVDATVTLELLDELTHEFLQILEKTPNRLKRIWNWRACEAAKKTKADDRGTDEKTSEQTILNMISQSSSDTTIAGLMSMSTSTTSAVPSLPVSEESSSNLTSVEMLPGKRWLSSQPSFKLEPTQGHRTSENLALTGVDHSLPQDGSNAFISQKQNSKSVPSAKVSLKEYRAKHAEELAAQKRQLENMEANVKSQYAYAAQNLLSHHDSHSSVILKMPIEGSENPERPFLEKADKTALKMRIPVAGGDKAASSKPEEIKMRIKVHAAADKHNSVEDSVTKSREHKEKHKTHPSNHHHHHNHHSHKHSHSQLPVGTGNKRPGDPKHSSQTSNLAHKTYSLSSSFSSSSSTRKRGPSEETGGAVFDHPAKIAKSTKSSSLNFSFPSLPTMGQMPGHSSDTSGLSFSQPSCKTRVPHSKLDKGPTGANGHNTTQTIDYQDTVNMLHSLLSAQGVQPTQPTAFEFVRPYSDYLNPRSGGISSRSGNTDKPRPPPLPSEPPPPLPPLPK
pIC50: −log10 of the molar value.
Recorded pIC50 by entry
property: pIC50

INSERT INTO measurements (compound_string, operator_symbol, reading) VALUES
  ('Cc1cc2nc(CNc3nc(N(C)CC(C)(C)O)nc4c(Br)cnn34)[nH]c2cc1C', '=', 5.37),
  ('COc1ccc2[nH]c(CNc3nc(N4CCN(C)CC4)nc4c(Br)cnn34)nc2c1', '<', 4.70),
  ('Fc1cccc(-c2cnc(CNc3nc(N4CCOCC4)nc4c(Br)cnn34)[nH]2)c1', '=', 5.60),
  ('C[C@@H]1CN(c2nc(NCc3nc4c(F)cccc4[nH]3)n3ncc(C4CC4)c3n2)C[C@H](C)N1', '<', 4.70);

* * *

DC50 listing for selected molecules.
target: CDK12 (nuclear staining in CAL-120 cells) (Homo sapiens, UniProt Q9NYV4); construct: endogenous in cells; host or cells: CAL-120 human breast cancer cells (DSMZ ACC 459); test: CDK12 nuclear protein level: immunofluorescence/high content analysis (CAL-120); assay type: cell-based; conditions: CAL-120 cells, 24 h, immunofluorescence; 50% reduction of nuclear CDK12 staining intensity; median; read-out: CDK12 degradation IF, DC50- [mol/l] (median)
Sequence (Q9NYV4 whole entry): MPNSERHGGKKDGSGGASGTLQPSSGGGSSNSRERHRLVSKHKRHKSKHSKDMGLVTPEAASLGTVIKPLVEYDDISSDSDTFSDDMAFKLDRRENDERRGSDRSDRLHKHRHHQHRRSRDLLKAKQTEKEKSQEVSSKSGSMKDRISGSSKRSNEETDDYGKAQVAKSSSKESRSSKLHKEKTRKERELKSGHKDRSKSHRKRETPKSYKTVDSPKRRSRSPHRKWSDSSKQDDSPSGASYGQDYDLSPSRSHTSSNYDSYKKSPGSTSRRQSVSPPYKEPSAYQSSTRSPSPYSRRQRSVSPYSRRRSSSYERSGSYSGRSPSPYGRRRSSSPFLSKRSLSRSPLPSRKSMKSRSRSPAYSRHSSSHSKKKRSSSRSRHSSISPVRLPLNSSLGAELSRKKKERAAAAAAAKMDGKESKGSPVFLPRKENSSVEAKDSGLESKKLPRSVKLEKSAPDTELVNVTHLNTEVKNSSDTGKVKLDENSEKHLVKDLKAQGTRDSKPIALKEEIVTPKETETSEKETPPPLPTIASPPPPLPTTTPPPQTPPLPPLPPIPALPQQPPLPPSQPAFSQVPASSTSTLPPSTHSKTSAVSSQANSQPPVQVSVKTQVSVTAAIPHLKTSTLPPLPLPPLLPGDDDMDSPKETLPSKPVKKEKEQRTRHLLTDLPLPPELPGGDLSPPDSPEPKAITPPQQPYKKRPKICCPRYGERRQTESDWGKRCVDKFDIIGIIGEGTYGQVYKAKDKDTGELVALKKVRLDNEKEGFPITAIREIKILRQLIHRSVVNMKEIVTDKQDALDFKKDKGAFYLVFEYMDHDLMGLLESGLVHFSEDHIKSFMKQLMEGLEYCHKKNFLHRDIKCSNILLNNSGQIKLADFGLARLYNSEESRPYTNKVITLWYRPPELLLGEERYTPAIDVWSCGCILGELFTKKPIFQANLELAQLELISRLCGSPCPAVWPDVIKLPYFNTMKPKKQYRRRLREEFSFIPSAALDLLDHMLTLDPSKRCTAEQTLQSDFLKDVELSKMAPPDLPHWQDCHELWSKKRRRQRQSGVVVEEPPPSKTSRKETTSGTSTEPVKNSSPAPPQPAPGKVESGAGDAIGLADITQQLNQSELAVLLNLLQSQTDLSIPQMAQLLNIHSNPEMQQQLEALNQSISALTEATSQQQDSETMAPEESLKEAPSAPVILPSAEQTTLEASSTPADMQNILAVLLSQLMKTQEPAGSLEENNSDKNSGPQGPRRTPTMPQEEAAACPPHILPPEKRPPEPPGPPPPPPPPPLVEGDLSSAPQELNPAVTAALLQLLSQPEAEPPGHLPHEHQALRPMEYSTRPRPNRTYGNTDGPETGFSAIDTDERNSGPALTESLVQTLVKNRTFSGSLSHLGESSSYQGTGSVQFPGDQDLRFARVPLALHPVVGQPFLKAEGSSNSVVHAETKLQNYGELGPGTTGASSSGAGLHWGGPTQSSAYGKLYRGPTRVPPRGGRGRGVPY
Sequence (O75909 whole entry partner): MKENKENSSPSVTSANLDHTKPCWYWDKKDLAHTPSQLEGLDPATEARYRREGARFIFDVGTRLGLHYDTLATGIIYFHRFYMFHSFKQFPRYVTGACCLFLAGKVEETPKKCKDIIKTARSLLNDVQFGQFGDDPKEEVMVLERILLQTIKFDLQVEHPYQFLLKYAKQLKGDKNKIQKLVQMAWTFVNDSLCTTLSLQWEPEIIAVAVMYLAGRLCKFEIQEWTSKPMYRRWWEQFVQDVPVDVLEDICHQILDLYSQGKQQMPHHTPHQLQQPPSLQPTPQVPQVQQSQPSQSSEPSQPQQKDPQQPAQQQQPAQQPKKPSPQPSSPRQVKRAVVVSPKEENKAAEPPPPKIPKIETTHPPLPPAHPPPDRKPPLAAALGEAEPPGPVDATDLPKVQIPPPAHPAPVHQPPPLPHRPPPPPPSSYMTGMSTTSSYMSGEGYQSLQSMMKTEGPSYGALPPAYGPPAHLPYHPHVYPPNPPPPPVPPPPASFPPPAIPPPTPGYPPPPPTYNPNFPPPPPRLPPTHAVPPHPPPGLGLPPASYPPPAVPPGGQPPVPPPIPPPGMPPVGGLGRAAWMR
property: DC50 (nM)

INSERT INTO results (molecule, reading) VALUES
  ('CN(CC(C)(C)O)c1nc(NCc2nc3cc(Cl)c(Cl)cc3[nH]2)n2ncc(Br)c2n1 [Example 331]', 6),
  ('CN1CCN(c2nc(NCc3nc4c(F)c(F)ccc4[nH]3)n3ncc(Br)c3n2)CC1 [Example 133]', 0.846),
  ('Fc1cc(F)cc(-c2nnc(CNc3nc(N4CCOCC4)nc4c(C(F)(F)F)cnn34)[nH]2)c1 [Example 386]', 9.83),
  ('C[C@@H]1CN(c2nc(NCc3nnc(-c4ccccc4)[nH]3)n3ncc(Br)c3n2)C[C@H](C)O1 [Example 78]', 5.15),
  ('Brc1cnn2c(NCc3nc4ccccc4[nH]3)nc(OCC3CC3)nc12 [Example 408]', 56.8),
  ('CN1CCN(c2nc(NCc3nc4ccccc4[nH]3)n3ncc(-c4ccncc4)c3n2)CC1 [Example 242]', 107),
  ('C[C@@H]1CN(c2nc(NCc3nc4c(F)cccc4[nH]3)n3ncc(C4CC4)c3n2)C[C@H](C)N1 [Example 186]', 0.226),
  ('Clc1cc2nc(CNc3nc(N4CCOCC4)nc4c(Br)cnn34)[nH]c2cc1Cl [Example 329]', 7.38),
  ('OC[C@@H]1CCCCN1c1nc(NCc2nnc(-c3ccccc3)[nH]2)n2ncc(Br)c2n1 [Example 70]', 7.9),
  ('Fc1ccc2[nH]c(CNc3nc(N4CCOCC4)nc4c(C5CC5(F)F)cnn34)nc2c1 (single isomer, unassigned) [Example 314]', 8.47),
  ('CN1CCN(c2nc(NCc3nc4ccccc4[nH]3)n3ncc(C(F)(F)F)c3n2)CC1 [Example 297]', 7.59),
  ('CCN(C)c1nc(NCc2nc3ccccc3[nH]2)n2ncc(Br)c2n1 [Example 233]', 103),
  ('CN(CC(C)(C)O)c1nc(NCc2nc3cc(Cl)c(Cl)cc3[nH]2)n2ncc(C3CC3)c2n1 [Example 306]', 12.7),
  ('N[C@@H]1CN(c2nc(NCc3nc4ccccc4[nH]3)n3ncc(Br)c3n2)CC12CC2 [Example 251]', 0.145),
  ('Brc1cnn2c(NCc3nnc(-c4ccccc4)[nH]3)nc(N3C[C@H]4C[C@@H]3CO4)nc12 [Example 118]', 4.85),
  ('O[C@@H]1CCN(c2nc(NCc3nc4ccccc4[nH]3)n3ncc(Br)c3n2)C1 [Example 202]', 31.8);

* * *

test system: CAL-120, human breast adenocarcinoma cells; test: Proliferation assay CAL-120 (crystal violet, 4 days); format: cell-based; conditions: Homo sapiens, CAL-120, 96 h, CAL-120 cells, median, read-out: Prolif-CAL-120, IC50-[mol/l] (median)
property: IC50

INSERT INTO measurements (molecule, tested_on, reading) VALUES
  ('CN1CCN(c2nc(NCc3nc4cc(F)ccc4[nH]3)n3ncc(C4CC4)c3n2)CC1', 'CAL-120, human breast adenocarcinoma cells', '4.13 nM'),
  ('C[C@@H]1CCCCN1c1nc(NCc2nc3ccccc3[nH]2)n2ncc(Br)c2n1', 'CAL-120, human breast adenocarcinoma cells', '255 nM'),
  ('Cc1ccc2[nH]c(CNc3nc(N4C[C@@H](C)N[C@@H](C)C4)nc4c(C5CC5)cnn34)nc2c1', 'CAL-120, human breast adenocarcinoma cells', '1.16 nM'),
  ('C[C@@H]1CN(c2nc(NCc3nnc(-c4ccccc4)[nH]3)n3ncc(Br)c3n2)C[C@H](C)O1', 'CAL-120, human breast adenocarcinoma cells', '25.7 nM'),
  ('CN[C@H]1CCN(c2nc(NCc3nc4ccccc4[nH]3)n3ncc(Br)c3n2)C1', 'CAL-120, human breast adenocarcinoma cells', '38.7 nM'),
  ('CN1CC2CCC1CN2c1nc(NCc2nc3ccccc3[nH]2)n2ncc(Br)c2n1 (stereo not shown)', 'CAL-120, human breast adenocarcinoma cells', '13 nM'),
  ('CN1CCN(c2nc(NCc3nc4c(F)c(F)ccc4[nH]3)n3ncc(C4CC4)c3n2)CC1', 'CAL-120, human breast adenocarcinoma cells', '1.73 nM'),
  ('CN1CCCC2CN(c3nc(NCc4nc5ccccc5[nH]4)n4ncc(Br)c4n3)CC21 (stereo not shown)', 'CAL-120, human breast adenocarcinoma cells', '135 nM'),
  ('FC(F)(F)Cc1cnn2c(NCc3nc4cc(Cl)c(Cl)cc4[nH]3)nc(N3CCOCC3)nc12', 'CAL-120, human breast adenocarcinoma cells', '8.98 nM'),
  ('OC1(C(F)(F)F)CCN(c2nc(NCc3nc4ccccc4[nH]3)n3ncc(Br)c3n2)C1 (stereo not shown)', 'CAL-120, human breast adenocarcinoma cells', '95.8 nM'),
  ('COc1ccccc1-c1nnc(CNc2nc(N3CCN(C)CC3)nc3c(C4CC4(F)F)cnn23)[nH]1 (stereo not shown)', 'CAL-120, human breast adenocarcinoma cells', '38.6 nM'),
  ('Fc1ccccc1-c1cnn2c(NCc3nc4ccccc4[nH]3)nc(N3CCOCC3)nc12', 'CAL-120, human breast adenocarcinoma cells', '230 nM'),
  ('CC1(N)CCN(c2nc(NCc3nc4ccccc4[nH]3)n3ncc(Br)c3n2)CC1', 'CAL-120, human breast adenocarcinoma cells', '20.3 nM'),
  ('CN(CC(C)(C)O)c1nc(NCc2nc3cc(C(F)(F)F)ccc3[nH]2)n2ncc(Br)c2n1', 'CAL-120, human breast adenocarcinoma cells', '3.05 nM'),
  ('CN(CC(C)(C)O)c1nc(NCc2nc3cc(Cl)c(Cl)cc3[nH]2)n2ncc(Br)c2n1', 'CAL-120, human breast adenocarcinoma cells', '3.08 nM'),
  ('Fc1ccc2[nH]c(CNc3nc(N4CCOCC4)nc4c(CC(F)F)cnn34)nc2c1F.O=C(O)C(F)(F)F', 'CAL-120, human breast adenocarcinoma cells', '3.06 nM');

Data origin: patent US20230117034A1
